Target: T1, importin α4 (IMPα4), Arabidopsis thaliana, recombinant (Arabidopsis thaliana, UniProt O80480 1-538, biotin (Biotin-PEG4-NHS ester Protein Labeling Kit) in the BLI experiments only)
T1 construct: importin alpha isoform 4 of Arabidopsis thaliana; gene isolated from A. thaliana, cloned into pETEV21a; Unlabelled in fluorescence polarisation; biotinylated and held on streptavidin tips in BLI; source: E. coli BL21pRARE, purified (Ni2+-IMAC)
T1 sequence (O80480 whole entry, canonical isoform): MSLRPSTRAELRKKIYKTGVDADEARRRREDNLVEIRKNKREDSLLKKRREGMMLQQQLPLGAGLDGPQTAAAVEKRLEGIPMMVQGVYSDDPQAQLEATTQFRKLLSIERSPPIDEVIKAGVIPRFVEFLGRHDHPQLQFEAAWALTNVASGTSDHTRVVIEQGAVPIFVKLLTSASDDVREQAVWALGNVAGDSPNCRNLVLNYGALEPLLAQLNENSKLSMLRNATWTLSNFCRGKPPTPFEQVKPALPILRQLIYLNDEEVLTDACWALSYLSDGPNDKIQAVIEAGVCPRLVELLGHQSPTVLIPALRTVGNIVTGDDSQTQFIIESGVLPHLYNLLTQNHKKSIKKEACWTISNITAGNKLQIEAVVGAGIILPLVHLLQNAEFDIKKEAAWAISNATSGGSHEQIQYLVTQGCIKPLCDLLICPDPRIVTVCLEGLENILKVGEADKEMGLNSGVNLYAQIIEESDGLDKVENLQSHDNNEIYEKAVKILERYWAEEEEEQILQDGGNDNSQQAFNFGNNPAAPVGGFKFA
Assay: fluorescence polarisation; competition: TAMRA-NOP-1 and IMPα4 (6 μM) held constant, unlabelled competitor concentration varied; Logistic Fit in Origin; n = 3
Conditions: both partners purified
# reported Kd; entries follow
Field: numeric (µM). Do not append units.

Example entries and their recorded answers appear below.
KDVEMAISCRKGRTGTAAGDVAFPKGKENLASVLKRYKRRL (peptide, UniProt Q9S814 1229-1269, looked up, 41 residues; The methods speak of amidated C-termini and acetylated N-termini of 'the D-ri-peptides'; whether this holds for N41P-1 is not clear; also called extended EIN2‐NLS probe N41P‐1; source: synthetic peptide, bought: GenScript) [N41P‐1 (EIN2 residues 1229–1269)]
8.1
LKRYKRRL (8 residues; The methods speak of amidated C-termini and acetylated N-termini of 'the D-ri-peptides'; whether this holds for NOP-1 is not clear; also called EIN2‐NLS core motif; basic EIN2‐NLS probe; source: synthetic peptide, bought: GenScript) [NOP‐1 (EIN2 NLS peptide, EIN2 residues 1262–1269)]
4.1

Output measured Kd for this item: GB1‐AtEIN2C^1215–1281 (domain or fragment, Arabidopsis thaliana, UniProt Q9S814 1215-1281, looked up, cloned into pETEV16b with a GB1-domain at the N terminus to enhance solubility; also called GB1_AtEIN2^1215–1281; shortened EIN2 CEND; source: E. coli BL21pRARE, purified (Ni2+-IMAC); not shown: GB1 domain, N-terminal, kept) KGKCTTAVTLLDLIKDVEMAISCRKGRTGTAAGDVAFPKGKENLASVLKRYKRRLSNKPVGMNQDGP
22.1
